Would you kindly list IC50 for each of these compounds?
# measurement-target: Sodium-dependent dopamine transporter (Rattus norvegicus, UniProt P23977)
# Sequence (P23977 whole entry): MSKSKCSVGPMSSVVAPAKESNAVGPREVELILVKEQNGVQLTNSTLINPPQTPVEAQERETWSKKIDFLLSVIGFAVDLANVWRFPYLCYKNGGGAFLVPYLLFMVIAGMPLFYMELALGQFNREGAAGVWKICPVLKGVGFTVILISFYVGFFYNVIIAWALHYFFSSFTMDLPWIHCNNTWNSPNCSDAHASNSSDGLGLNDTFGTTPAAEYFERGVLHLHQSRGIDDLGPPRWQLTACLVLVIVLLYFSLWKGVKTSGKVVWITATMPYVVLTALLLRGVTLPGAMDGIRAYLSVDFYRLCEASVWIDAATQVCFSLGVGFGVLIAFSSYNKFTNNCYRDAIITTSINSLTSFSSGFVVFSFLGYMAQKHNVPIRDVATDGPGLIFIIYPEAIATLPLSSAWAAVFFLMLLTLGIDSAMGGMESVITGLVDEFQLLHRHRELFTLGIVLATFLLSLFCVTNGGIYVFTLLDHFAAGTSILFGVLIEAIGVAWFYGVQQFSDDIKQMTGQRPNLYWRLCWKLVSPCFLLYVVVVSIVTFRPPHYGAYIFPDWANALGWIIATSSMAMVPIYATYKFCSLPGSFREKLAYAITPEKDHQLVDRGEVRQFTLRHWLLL
# method: Inhibitory binding activity against rat striatal tissue using [3H][…] as the radioligand.
# Type: tissue-based, Striatum
Entry rule: numbers only, all in nM.

The compound listed as NCC1C2CCC(CC2)C1c1ccc(Cl)cc1 (stereo in doubt; 7c) shows IC50 equal to 12.9

According to the records, this compound NCC1C2CCC(CC2)C1c1cccc(Cl)c1 (stereo in doubt; 7b) displays IC50 of 117

Recorded result, CN(C)CC1C2CCC(C2)C1c1ccccc1 (stereo in doubt; 12a) , IC50: 2510

Sample COc1ccccc1C1C2CCC(C2)C1CN (stereo in doubt; 11e) ; IC50 observed: 1480

Form: compound = COc1ccc(C2C3CCC(C3)C2CN)cc1 (stereo in doubt; 13g) ; IC50 = 495

In plain terms, CN(C)CC1C2CCC(CC2)C1c1ccc(Cl)c(Cl)c1 (stereo in doubt; 8d) has a documented IC50 of 14.2

The compound NCC1C2CCC(C2)C1c1ccc(Cl)cc1 (stereo in doubt; 11c) showed IC50 equal to 207

Looking up COc1ccc(C2C3CCC(CC3)C2CN(C)C)cc1 (stereo not given) , I found its IC50 recorded as 380

Kindly note the recorded IC50 for NCC1C2CCC(C2)C1c1ccccc1 (stereo in doubt; 15a) , which is 251

Consider NCC1C2CCC(C2)C1c1cccc(Cl)c1 (stereo in doubt; 9b) . Its measured IC50 is 149

====

# measurement-target: Sodium-dependent dopamine transporter (Rattus norvegicus)
# method: Inhibitory binding activity against rat striatal tissue using [3H][…] as the radioligand.
# Assay type: tissue-based, Striatum
observation-type: IC50 (µM)
Report only the number, with the unit µM understood.

Measured IC50 of NCC1C2CCC(C2)C1c1cccc(Cl)c1 (stereo in doubt; 11b) : 0.239

# IC50 of NCC1C2CCC(CC2)C1c1ccc(Cl)c(Cl)c1 (stereo in doubt; 5d) = 0.0375

Reported IC50 of COc1ccccc1C1C2CCC(C2)C1CN (stereo in doubt; 9e) : 11.6

Entry CN(C)CC1C2CCC(CC2)C1c1cccc(Cl)c1 (stereo in doubt; 8b) ; IC50 = 0.086

# IC50 of COc1ccc(C2C3CCC(CC3)C2CN)cc1 (stereo not given) = 0.249

====

# measurement-target: Sodium-dependent dopamine transporter (Rattus norvegicus)
# method: Discrimination ratio of compound is the ratio of inhibitory activity against [3H]dopamine uptake over [3H][…] binding
observation-type: Discrimination ratio
Number only, please.

Measured on Sodium-dependent dopamine transporter (Rattus norvegicus), CN(C)CC1C2CCC(CC2)C1c1ccc(Cl)c(Cl)c1 (stereo in doubt; 6d) has a documented Discrimination ratio of 2.6

NCC1C2CCC(CC2)C1c1ccc(Cl)c(Cl)c1 (stereo in doubt; 5d) on Sodium-dependent dopamine transporter (Rattus norvegicus) gives Discrimination ratio = 2.6

Entry COc1ccc(C2C3CCC(CC3)C2CN(C)C)cc1 (stereo unspecified) , Sodium-dependent dopamine transporter (Rattus norvegicus) data, Discrimination ratio value: 3.8

Record for NCC1C2CCC(CC2)C1c1ccc(Cl)cc1 (stereo in doubt; 5c) under target or system Sodium-dependent dopamine transporter (Rattus norvegicus): Discrimination ratio reported as 5.2

# lookup: COc1ccc(C2C3CCC(C3)C2CN)cc1 (stereo in doubt; 9g) on Sodium-dependent dopamine transporter (Rattus norvegicus), Discrimination ratio = 4.8

Entry COc1ccc(C2C3CCC(CC3)C2CN)cc1 (stereo unspecified) : Discrimination ratio on Sodium-dependent dopamine transporter (Rattus norvegicus) = 6

====

# measurement-target: Sodium-dependent dopamine transporter (Rattus norvegicus)
# method: Inhibition of dopamine uptake into rat striatal tissue, using [3H]- dopamine as the radioligand.
# Assay type: tissue-based, Striatum
Record form. Attribute: pIC50. Fill in for each entry.
// field semantics: pIC50 = negative decimal log of concentration (mol/L)

Looking up NCC1C2CCC(CC2)C1c1ccccc1 (stereo in doubt; 5a) , I see its pIC50 listed as 5.23

In plain terms, NCC1C2CCC(C2)C1c1ccc(Cl)cc1 (stereo in doubt; 9c) has a documented pIC50 of 6.64

Form: compound = NCC1C2CCC(C2)C1c1ccc(Cl)cc1 (stereo in doubt; 15c) ; pIC50 = 7.46

For NCC1C2CCC(C2)C1c1ccc(Cl)c(Cl)c1 (stereo in doubt; 11d) the compound record lists pIC50 as 7.03

Reported pIC50 of NCC1C2CCC(CC2)C1c1ccc(Cl)cc1 (stereo in doubt; 5c) : 6.43

Memo: CN(C)CC1C2CCC(CC2)C1c1ccc(Cl)c(Cl)c1 (stereo in doubt; 8d) , reported pIC50: 7.53

pIC50 reported for this compound NCC1C2CCC(C2)C1c1ccccc1 (stereo in doubt; 11a) : 5.05

pIC50 reported for this compound NCC1C2CCC(CC2)C1c1cccc(Cl)c1 (stereo in doubt; 5b) : 6.02

Looking up CN(C)CC1C2CCC(CC2)C1c1ccc(Cl)c(Cl)c1 (stereo in doubt; 6d) , I see its pIC50 listed as 7.25

Just so you know, measured pIC50 for NCC1C2CCC(C2)C1c1ccc(Cl)c(Cl)c1 (stereo in doubt; 9d) came out at 7.24

GET /value?item= NCC1C2CCC(CC2)C1c1ccc(Cl)c(Cl)c1 (stereo in doubt; 7d) &field=pIC50 returns 7.47

Looking up NCC1C2CCC(C2)C1c1cccc(Cl)c1 (stereo in doubt; 11b) , I see its pIC50 listed as 6.11

The reported pIC50 of the compound COc1ccc(C2C3CCC(CC3)C2CN)cc1 (stereo unspecified) was 5.82

For reference, reported pIC50 for CN(C)CC1C2CCC(CC2)C1c1cccc(Cl)c1 (stereo in doubt; 6b) stands at 6.73

The compound listed as COc1cccc(C2C3CCC(C3)C2CN)c1 (stereo in doubt; 9f) has a reported pIC50 of 4.53

Query COc1cccc(C2C3CCC(C3)C2CN)c1 (stereo in doubt; 11f) yields pIC50 of 5.18

CN(C)CC1C2CCC(C2)C1c1ccccc1 (stereo in doubt; 12a) has a reported pIC50 of 5.36

Measured pIC50 of NCC1C2CCC(CC2)C1c1ccc(Cl)cc1 (stereo in doubt; 7c) : 7.17

The recorded pIC50 for NCC1C2CCC(CC2)C1c1ccc(N)cc1 (stereo unspecified) is 6.15

// pIC50 value for NCC1C2CCC(CC2)C1c1cccc(Cl)c1 (stereo in doubt; 7b) : 6.37

The compound NCC1C2CCC(C2)C1c1ccc(Cl)cc1 (stereo in doubt; 13c) showed pIC50 equal to 6.46

====

Could you please report measured Discrimination ratio for the items listed next?
# measurement-target: Sodium-dependent dopamine transporter (Rattus norvegicus) (UniProt P23977)
# Sequence (P23977 whole entry): as above
# method: Discrimination ratio of compound is the ratio of inhibitory activity against [3H]dopamine uptake over [3H][…] binding
Give your answer as a number; write no unit.

Entry NCC1C2CCC(C2)C1c1ccccc1 (stereo in doubt; 13a) — recorded Discrimination ratio = 4.3

The compound listed as COc1ccccc1C1C2CCC(C2)C1CN (stereo in doubt; 9e) has a reported Discrimination ratio of 3.1

For this compound ( NCC1C2CCC(C2)C1c1ccc(Cl)c(Cl)c1 (stereo in doubt; 11d) ), measured Discrimination ratio is 2.9

Form field Discrimination ratio, entry NCC1C2CCC(CC2)C1c1cccc(Cl)c1 (stereo in doubt; 7b) : 3.7

The compound listed as NCC1C2CCC(C2)C1c1ccccc1 (stereo in doubt; 11a) shows Discrimination ratio equal to 3.1

# compound COc1cccc(C2C3CCC(C3)C2CN)c1 (stereo in doubt; 11f) ; its Discrimination ratio = 3.3

Field Discrimination ratio (entry NCC1C2CCC(C2)C1c1cccc(Cl)c1 (stereo in doubt; 9b) ) reads 5.1

So for NCC1C2CCC(C2)C1c1ccc(Cl)cc1 (stereo in doubt; 11c) , the logged Discrimination ratio turned out to be 2.9

Lookup result for NCC1C2CCC(CC2)C1c1ccccc1 (stereo in doubt; 7a) ; measured Discrimination ratio: 5.5

Documented Discrimination ratio of NCC1C2CCC(C2)C1c1cccc(Cl)c1 (stereo in doubt; 11b) : 3.3

====

# measurement-target: Sodium-dependent dopamine transporter (Rattus norvegicus)
# method: Discrimination ratio of compound is the ratio of inhibitory activity against [3H]dopamine uptake over [3H][…] binding
Please provide measured Discrimination ratio for the entries that follow.
Response field accepts a number only; no unit should be typed.

Discrimination ratio recorded for this compound, CN(C)CC1C2CCC(C2)C1c1ccccc1 (stereo in doubt; 14a) , is 1.3

According to the records, this compound NCC1C2CCC(CC2)C1c1ccccc1 (stereo in doubt; 5a) displays Discrimination ratio of 5

// Discrimination ratio lookup, compound = CN(C)CC1C2CCC(CC2)C1c1cccc(Cl)c1 (stereo in doubt; 8b) , result: 3.3

Form: compound = NCC1C2CCC(CC2)C1c1ccc(Cl)cc1 (stereo in doubt; 7c) ; Discrimination ratio = 5.3
